In this section, each of the compounds is paired with its reported Ki.
# Study Target: 4-aminobutyrate aminotransferase, mitochondrial (Sus scrofa, UniProt P80147)
# Sequence (P80147 whole entry): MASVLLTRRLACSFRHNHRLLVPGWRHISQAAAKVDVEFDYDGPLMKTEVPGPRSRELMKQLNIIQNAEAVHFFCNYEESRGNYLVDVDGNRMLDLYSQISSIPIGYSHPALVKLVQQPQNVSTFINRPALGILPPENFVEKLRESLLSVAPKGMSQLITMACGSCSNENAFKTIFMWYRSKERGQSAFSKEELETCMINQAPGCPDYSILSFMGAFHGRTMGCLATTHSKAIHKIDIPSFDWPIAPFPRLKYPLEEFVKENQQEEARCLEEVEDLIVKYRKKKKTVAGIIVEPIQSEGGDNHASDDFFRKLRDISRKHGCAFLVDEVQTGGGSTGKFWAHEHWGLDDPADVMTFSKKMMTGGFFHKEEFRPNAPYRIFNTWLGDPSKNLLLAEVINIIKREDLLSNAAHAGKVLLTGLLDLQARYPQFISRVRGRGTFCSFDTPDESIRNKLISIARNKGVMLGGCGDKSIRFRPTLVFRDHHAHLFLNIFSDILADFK
# Assay Text: Compound was tested for inhibitory constant of Gamma-amino-N-butyrate transaminase in pig brain at pH of 6.5
Express the result in mM but write the number alone.

Compound	Ki (mM)
NC(/C=C/C(=O)O)CF (configuration not stated)	2

Query compound follows.
Incoming: # query: Ki of entry NC(CF)CCC(=O)O (configuration not stated)
Outgoing: 105

Hello, the source for this data is ChEMBL document CHEMBL1123222, in case you need it.
